Sourced from PubChem BioAssay AID1919015

# System: OVCAR-5 complex spheroids with HUVEC/MSC, viability, % test/control
# protocol_details: Anticancer human tumor OVCAR-5 cell line growth inhibition [AhR];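 further: spheroids exposed to compounds for 7 days; 100% = DMSO vehicle control wells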
# condition_parameters: second compound 3.16 µM; first compound 0.316 µM; stronger effect = lower value
# viability, T/C per record follows

[
  {
    "compound": "CC(C)c1c(-c2ccccc2)nc2c(C#N)c[nH]n2c1=O + Cc1ccccc1N=Nc1ccc(NC(=O)c2ccnn2C)c(C)c1",
    "measure_unit": "%",
    "viability, T/C": 111
  },
  {
    "compound": "CC(C)c1c(-c2ccccc2)nc2c(C#N)c[nH]n2c1=O + CC(CO)NC(=O)c1cc(-c2ccc(Cl)cc2)nn(-c2cnn(C)c2)c1=O",
    "measure_unit": "%",
    "viability, T/C": 107
  },
  {
    "compound": "COc1cc(Nc2ncc3c(n2)-c2ccc(Cl)cc2C(c2c(F)cccc2OC)=NC3)ccc1C(=O)O + Cc1ccccc1N=Nc1ccc(NC(=O)c2ccnn2C)c(C)c1",
    "measure_unit": "%",
    "viability, T/C": 74.8
  },
  {
    "compound": "Nc1ccn(C2OC(CO)C(O)C2(F)F)c(=O)n1 (centres undefined) + Cc1ccccc1N=Nc1ccc(NC(=O)c2ccnn2C)c(C)c1",
    "measure_unit": "%",
    "viability, T/C": 27.1
  }
]
